Measured Ki of individual entries
- system: recombinant human NK3 receptor (Homo sapiens)
- Construct: expressed in transfected cells; host or cells: HEK293 cells, transient expression; membranes
- assay_info: [3H]SR142801 competition binding assay
endpoint_label: Ki (nM)

INSERT INTO assay_data (molecule, endpoint_label, reported_value) VALUES
  ('CN(C(=O)Oc1ccc(F)cc1)[C@@H]1CN(C(=O)C2CCN(c3ccc(C(F)(F)F)cn3)CC2)C[C@H]1c1ccc(F)c(Cl)c1 [Example 317]', 'Ki', 1.6),
  ('CN(C(=O)Oc1ccc(F)cc1)[C@@H]1CN(C(=O)C2CCN(C(=O)C3CCC3)CC2)C[C@H]1c1ccc(Cl)cc1 [Example 247]', 'Ki', 0.9),
  ('COC1CC(C(=O)N2CCC(C(=O)N3C[C@@H](N(C)C(=O)Oc4ccc(F)cc4)[C@H](c4ccc(Cl)c(Cl)c4)C3)CC2)C1 (stereo partly drawn) [Example 269]', 'Ki', 0.5);

----------
- system: recombinant human NK3 receptor (Homo sapiens, UniProt P29371)
- Construct: expressed in transfected cells; host or cells: HEK293 cells, transient expression; membranes
- Sequence (P29371 whole entry): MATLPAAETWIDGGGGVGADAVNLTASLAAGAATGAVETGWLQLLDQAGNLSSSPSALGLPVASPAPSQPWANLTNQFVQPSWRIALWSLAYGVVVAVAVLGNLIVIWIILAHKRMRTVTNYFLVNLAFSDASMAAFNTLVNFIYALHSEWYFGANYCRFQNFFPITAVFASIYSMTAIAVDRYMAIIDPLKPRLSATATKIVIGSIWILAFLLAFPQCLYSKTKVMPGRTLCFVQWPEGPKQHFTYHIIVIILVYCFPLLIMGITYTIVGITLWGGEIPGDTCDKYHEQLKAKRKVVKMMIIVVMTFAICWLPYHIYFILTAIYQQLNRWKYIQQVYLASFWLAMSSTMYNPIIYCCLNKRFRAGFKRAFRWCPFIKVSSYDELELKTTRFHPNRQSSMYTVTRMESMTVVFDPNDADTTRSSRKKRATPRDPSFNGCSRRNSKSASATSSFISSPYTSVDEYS
- assay_info: [3H]SR142801 competition binding assay
- measurement_parameters: hNK-3 receptor affinity; membranes from HEK293 cells transiently expressing recombinant human NK3 receptor; [3H]SR142801; Cheng-Prussoff; read-out: Data Ki
endpoint_label: Ki (nM)

INSERT INTO results (compound, endpoint_label, reported_value) VALUES
  ('CN(C(=O)O[C@H]1CC[C@H](C(F)(F)F)CC1)[C@H]1CN(C(=O)C2CCN(c3ccc(C#N)cn3)CC2)C[C@@H]1c1ccc(Cl)cc1 [Example 125]', 'Ki', 50.9),
  ('CN(C(=O)Nc1ccc(F)cc1)[C@H]1CN(C(=O)C2CCN(C(=O)C3(C)CC3)CC2)C[C@@H]1c1ccc(Cl)cc1 (racemic) [Example 96]', 'Ki', 53.7),
  ('CN(C(=O)OC1CCC(C(F)(F)F)CC1)[C@H]1CN(C(=O)C2CCN(C(=O)C3(C)CC3)CC2)C[C@@H]1c1ccc(Cl)c(Cl)c1 (mixture of isomers) [Example 103]', 'Ki', 1.8),
  ('CN(C(=O)OCCC1CC1)[C@@H]1CN(C(=O)C2CCN(C(=O)C3(C)CC3)CC2)C[C@H]1c1ccc(Cl)c(Cl)c1 [Example 36]', 'Ki', 33),
  ('CN(C(=O)O[C@H]1CC[C@H](C(F)(F)F)CC1)[C@@H]1CN(C(=O)C2CCN(c3ccc(C#N)cn3)CC2)C[C@H]1c1ccc(Cl)cc1 [Example 126]', 'Ki', 1.2),
  ('CN(C(=O)OC1CCCC1)[C@@H]1CN(C(=O)C2CCN(c3ccc(C#N)cn3)CC2)C[C@H]1c1ccc(Cl)cc1 [Example 204]', 'Ki', 41.2),
  ('CC(OC(=O)N(C)[C@@H]1CN(C(=O)C2CCN(c3ccc(C#N)cn3)CC2)C[C@H]1c1ccc(Cl)cc1)C(F)(F)F (stereo partly shown) [Example 166]', 'Ki', 36.4),
  ('CN(C(=O)OCCC1CC1)[C@H]1CN(C(=O)C2CCN(C(=O)C3(C)CC3)CC2)C[C@@H]1c1ccc(Cl)c(Cl)c1 [Example 35]', 'Ki', 81.1),
  ('CN(C(=O)OCCCC(F)(F)F)[C@H]1CN(C(=O)C2CCN(C(=O)C3(C)CC3)CC2)C[C@@H]1c1ccc(Cl)cc1 [Example 100]', 'Ki', 12.2),
  ('CN(C(=O)OC1CCC1)[C@@H]1CN(C(=O)C2CCN(c3ccc(C#N)cn3)CC2)C[C@H]1c1ccc(Cl)cc1 [Example 173]', 'Ki', 47),
  ('CN(C(=O)OCCCC(F)(F)F)[C@@H]1CN(C(=O)C2CCN(C(=O)C3(C)CC3)CC2)C[C@H]1c1ccc(Cl)c(Cl)c1 [Example 82]', 'Ki', 1.4),
  ('CC(OC(=O)N(C)[C@@H]1CN(C(=O)C2CCN(c3ccc(C#N)cn3)CC2)C[C@H]1c1ccc(Cl)cc1)C1CC1 (stereo partly shown) [Example 153]', 'Ki', 19.2),
  ('CN(C(=O)OCC1CCOCC1)[C@@H]1CN(C(=O)C2CCN(c3ccc(C#N)cn3)CC2)C[C@H]1c1ccc(Cl)cc1 [Example 231]', 'Ki', 5.7),
  ('COCCOC(=O)N(C)[C@@H]1CN(C(=O)C2CCN(c3ccc(C#N)cn3)CC2)C[C@H]1c1ccc(Cl)cc1 [Example 206]', 'Ki', 90.6),
  ('CN(C(=O)OCC(F)(F)F)[C@@H]1CN(C(=O)C2CCN(c3ccc(C#N)cn3)CC2)C[C@H]1c1ccc(Cl)cc1 [Example 158]', 'Ki', 12.5),
  ('CN(C(=O)OCCC1CC1)[C@H]1CN(C(=O)C2CCN(C(=O)C3(C)CC3)CC2)C[C@@H]1c1ccc(Cl)cc1 (stereo in doubt) [Example 54]', 'Ki', 26.4);
